# Tested on: Helicoverpa armigera GSTs
# EXPERIMENT: Inhibition of total GSTs enzyme of Helicoverpa armigera (CDNB method)
# Assay type: biochemical
# RECORDED CONDITIONS: 100 μM

{"COMPOUND": "COc1cc(C(=O)NNC(=O)c2cc(-c3ccccc3)nn2-c2ccccc2)cc(OC)c1OC [PXG4]", "TGT": "Helicoverpa armigera GSTs", "100 μM Inhibition rate % [%]": 4.07}
{"COMPOUND": "N#Cc1ccc(OCC(=O)NNC(=O)c2cc(-c3ccccc3)nn2-c2ccccc2)cc1 [PXG19]", "TGT": "Helicoverpa armigera GSTs", "100 μM Inhibition rate % [%]": 6.30}
{"COMPOUND": "COc1ccccc1CC(=O)NNC(=O)c1cc(-c2ccccc2)nn1-c1ccccc1 [PXG10]", "TGT": "Helicoverpa armigera GSTs", "100 μM Inhibition rate % [%]": 9.75}
{"COMPOUND": "CC1(c2ccccc2)NC(=O)N(NC(=O)c2cc(-c3ccccc3)nn2-c2ccccc2)C1=O (stereo not drawn) [PXG12]", "TGT": "Helicoverpa armigera GSTs", "100 μM Inhibition rate % [%]": "−5.00"}
{"COMPOUND": "O=C(NNC(=O)c1cc(-c2ccccc2)nn1-c1ccccc1)c1cc[nH]c(=O)c1 [PXG1]", "TGT": "Helicoverpa armigera GSTs", "100 μM Inhibition rate % [%]": 77.22}
{"COMPOUND": "O=C(COc1ccccc1)NNC(=O)c1cc(-c2ccccc2)nn1-c1ccccc1 [PXG5]", "TGT": "Helicoverpa armigera GSTs", "100 μM Inhibition rate % [%]": 9.57}
{"COMPOUND": "CN(C)S(=O)(=O)c1cccc(C(=O)NNC(=O)c2cc(-c3ccccc3)nn2-c2ccccc2)c1 [PXG9]", "TGT": "Helicoverpa armigera GSTs", "100 μM Inhibition rate % [%]": 5.25}
{"COMPOUND": "O=C(NNC(=O)c1cc(-c2ccccc2)nn1-c1ccccc1)c1ccccc1 [PXG11]", "TGT": "Helicoverpa armigera GSTs", "100 μM Inhibition rate % [%]": 8.09}
{"COMPOUND": "O=C(CNc1ccccc1)NNC(=O)c1cc(-c2ccccc2)nn1-c1ccccc1 [PXG3]", "TGT": "Helicoverpa armigera GSTs", "100 μM Inhibition rate % [%]": 20.74}

* * *

# System: Mythimna separata GSTs
# EXPERIMENT: Inhibition of total GSTs enzyme of Mythimna separata (CDNB method)
# Assay type: biochemical
# RECORDED CONDITIONS: 100 μM

{"MOLECULE": "COc1cc(C(=O)NNC(=O)c2cc(-c3ccccc3)nn2-c2ccccc2)cc(OC)c1OC [PXG4]", "100 μM Inhibition rate % (%)": 0.00}
{"MOLECULE": "CC1CCC2(CC1)NC(=O)N(NC(=O)c1cc(-c3ccccc3)nn1-c1ccccc1)C2=O (centres unmarked) [PXG16]", "100 μM Inhibition rate % (%)": 10.50}
{"MOLECULE": "O=C(CC12C[C@H]3C[C@H](C1)C[C@@H](C2)C3)NNC(=O)c1cc(-c2ccccc2)nn1-c1ccccc1 [PXG26]", "100 μM Inhibition rate % (%)": 42.48}
{"MOLECULE": "CN(C)S(=O)(=O)c1cccc(C(=O)NNC(=O)c2cc(-c3ccccc3)nn2-c2ccccc2)c1 [PXG9]", "100 μM Inhibition rate % (%)": 2.72}
{"MOLECULE": "CC1(CCc2ccccc2)NC(=O)N(NC(=O)c2cc(-c3ccccc3)nn2-c2ccccc2)C1=O (centres unmarked) [PXG15]", "100 μM Inhibition rate % (%)": 4.29}
{"MOLECULE": "CN(C)S(=O)(=O)c1ccc(C(=O)NNC(=O)c2cc(-c3ccccc3)nn2-c2ccccc2)cc1 [PXG29]", "100 μM Inhibition rate % (%)": 4.90}
{"MOLECULE": "O=C(NNC(=O)c1cc(-c2ccccc2)nn1-c1ccccc1)c1ccccc1 [PXG11]", "100 μM Inhibition rate % (%)": 31.76}
{"MOLECULE": "O=C(NN1C(=O)NC2(CCCCC2)C1=O)c1cc(-c2ccccc2)nn1-c1ccccc1 [PXG6]", "100 μM Inhibition rate % (%)": 38.85}
{"MOLECULE": "N#Cc1ccc(OCC(=O)NNC(=O)c2cc(-c3ccccc3)nn2-c2ccccc2)cc1 [PXG19]", "100 μM Inhibition rate % (%)": 47.16}
{"MOLECULE": "CC1(c2ccccc2)NC(=O)N(NC(=O)c2cc(-c3ccccc3)nn2-c2ccccc2)C1=O (centres unmarked) [PXG12]", "100 μM Inhibition rate % (%)": 19.42}
{"MOLECULE": "COc1ccccc1OCC(=O)NNC(=O)c1cc(-c2ccccc2)nn1-c1ccccc1 [PXG18]", "100 μM Inhibition rate % (%)": "−2.16"}
{"MOLECULE": "COc1ccccc1CC(=O)NNC(=O)c1cc(-c2ccccc2)nn1-c1ccccc1 [PXG10]", "100 μM Inhibition rate % (%)": "−2.50"}
{"MOLECULE": "N#Cc1ccccc1OCC(=O)NNC(=O)c1cc(-c2ccccc2)nn1-c1ccccc1 [PXG23]", "100 μM Inhibition rate % (%)": 22.92}
{"MOLECULE": "O=C(CNc1ccccc1)NNC(=O)c1cc(-c2ccccc2)nn1-c1ccccc1 [PXG3]", "100 μM Inhibition rate % (%)": 42.96}
{"MOLECULE": "CCCCCCSC[C@H](NC(=O)CC[C@H](N)C(=O)O)C(=O)NCC(=O)O [GTX, S-Hexylglutathione, reference compound]", "100 μM Inhibition rate % (%)": 87.20}
{"MOLECULE": "O=C(NNC(=O)c1cc(-c2ccccc2)nn1-c1ccccc1)c1cc[nH]c(=O)c1 [PXG1]", "100 μM Inhibition rate % (%)": 95.19}
{"MOLECULE": "O=C(COc1ccccc1)NNC(=O)c1cc(-c2ccccc2)nn1-c1ccccc1 [PXG5]", "100 μM Inhibition rate % (%)": 47.24}
